system: Venezuelan equine encephalitis virus; assay: Antiviral activity against Venezuelan equine encephalitis virus TC83 infected in Vero 76 cells assessed as reduction in virus-induced cytopathic effect after 2 days by Celltiter-Glo reagent based assay; assay type: functional, organism-based; conditions: TC83, Vero 76, 48 h
ENDPOINT: pEC50
Field pEC50 (float): negative decimal logarithm of the concentration in molar.

molecular_string=CN1CCN(C)/C(=N/c2cc(F)c(F)cc2C(=O)Nc2ccccc2)C1 system_under_test="Venezuelan equine encephalitis virus" observed_value=5.36
molecular_string=CC(C)N1CCN(Cc2nc3ccc([N+](=O)[O-])cc3c(=O)n2-c2ccccc2F)CC1 system_under_test="Venezuelan equine encephalitis virus" observed_value=5.36
molecular_string=CCN1CCN(Cc2nc3ccc(C#N)cc3c(=O)n2-c2ccccc2)CC1 system_under_test="Venezuelan equine encephalitis virus" observed_value=5.96

# return recorded pEC50 for input `COc1cccc(NC(=O)c2cc([N+](=O)[O-])ccc2/N=C2\CN(C)CCN2C)c1`
5.09

Please indicate pEC50 recorded for `CN1CCN(C)/C(=N/c2ccc([N+](=O)[O-])cc2C(=O)Nc2ccsc2)C1`
6.30

---

The following molecules are shown together with reported EC50 values.
system: Venezuelan equine encephalitis virus; assay: Antiviral activity against Venezuelan equine encephalitis virus TC83 infected in Vero 76 cells assessed as reduction in virus-induced cytopathic effect after 2 days by Celltiter-Glo reagent based assay; type: functional, organism-based; conditions: TC83, Vero 76, 48 h
Form entry: value (nM) — number only.

molecular_string=CN1CCN(C)/C(=N/c2cc([N+](=O)[O-])ccc2C(=O)Nc2ccccc2)C1 observed_value=8400

Indicate the recorded EC50 value for this molecule: `COC(=O)c1ccc(/N=C2\CN(C)CCN2C)c(C(=O)Nc2ccccc2)c1`
2000

Consider the molecule `CN1CCN(C)/C(=N/c2ccc([N+](=O)[O-])cc2C(=O)Nc2ccccc2F)C1` . State its measured EC50.
200

---

assay: Drug concentration in C57BL/6 mouse brain at 10 mg/kg, ip administered as single dose measured after 120 mins by LC/MS analysis based RACE assay; type: ADME, organism-based; set-up: dose 10 mg/kg, route intraperitoneal; settings: read-out: Drug uptake
ENDPOINT: concentration at 2 h (nM)
State the answer as a number, implicitly in nM.

Specify concentration at 2 h for `CN1CCN(C)/C(=N/c2ccc([N+](=O)[O-])cc2C(=O)Nc2ccccc2)C1` and stop.
350

---

system: Venezuelan equine encephalitis virus; test: Antiviral activity against Venezuelan equine encephalitis virus TC83 infected in Vero 76 cells assessed as reduction in virus-induced cytopathic effect after 2 days by Celltiter-Glo reagent based assay; type: functional, organism-based; settings: TC83, Vero 76, 48 h
ENDPOINT: log10(EC50) (log10 of the value in µM)
For clarity, the numbers are log10 values of EC50 expressed in µM.

Here are 4 compounds together with their reported answers.
molecular_string=COc1ccc(NC(=O)c2cc([N+](=O)[O-])ccc2/N=C2\CN(C)CCN2C)cc1 system_under_test="Venezuelan equine encephalitis virus" observed_value=-1.40
molecular_string=O=c1c2cc([N+](=O)[O-])ccc2nc(CN2CCOCC2)n1-c1ccccc1F system_under_test="Venezuelan equine encephalitis virus" observed_value=0.94
molecular_string=O=c1c2cc([N+](=O)[O-])ccc2nc(C2CCNCC2)n1-c1ccccc1 system_under_test="Venezuelan equine encephalitis virus" observed_value=0.56
molecular_string=CCN1CCN(Cc2nc3ccc([N+](=O)[O-])cc3c(=O)n2-c2ccc(F)cc2)CC1 system_under_test="Venezuelan equine encephalitis virus" observed_value=-0.10

For the compound `CCN1CCN(Cc2nc3ccc([N+](=O)[O-])cc3c(=O)n2-c2ccccc2)CC1` , report log10(EC50).
-0.52

Where do these numbers come from? They come from ChEMBL document CHEMBL3352189.
